Item-by-item account of polymerase ribozyme fitness (log ratio)
B1: TPR 5TU (parent)
chain: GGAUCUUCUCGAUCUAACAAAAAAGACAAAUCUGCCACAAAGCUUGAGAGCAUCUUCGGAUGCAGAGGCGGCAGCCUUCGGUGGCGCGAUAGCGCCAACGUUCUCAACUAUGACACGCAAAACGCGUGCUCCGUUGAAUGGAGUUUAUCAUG

variants of: B1; experiment: polymerase ribozyme fitness, log enrichment relative to wild type (log ratio); higher = more active; in vitro selection for triplet polymerase activity
This sample holds only a part of the variants without activity.

Take a look at these entries with their results.
{"variant-annotation": "C85A C129G", "polymerase ribozyme fitness (log ratio)": -2.95}
{"variant-annotation": "C32U C118U G133C", "polymerase ribozyme fitness (log ratio)": -2.99}
{"variant-annotation": "C18U C131A", "polymerase ribozyme fitness (log ratio)": -2.6}
{"variant-annotation": "A28C U31G C125G", "polymerase ribozyme fitness (log ratio)": "≤ -4.2"}
{"variant-annotation": "C10A A17U C36U C76U G84U U101A U104G C108U A121C", "polymerase ribozyme fitness (log ratio)": "≤ -4.2"}
{"variant-annotation": "A39G C99A", "polymerase ribozyme fitness (log ratio)": -3.78}

According to the records, this variant C18G U45C C96U C116A U130C displays polymerase ribozyme fitness (log ratio) of ≤ -4.2

According to the records, this variant A19C C57A A119G G128A displays polymerase ribozyme fitness (log ratio) of -4.12

According to the records, this variant U7C A12C A24C C96U A120C displays polymerase ribozyme fitness (log ratio) of ≤ -4.2

According to the records, this variant C5G A20U C35U G50U C93U displays polymerase ribozyme fitness (log ratio) of -3.76

Attribution: the RNAGym collection of RNA variant scans (doi:10.1073/pnas.2313332121)
